biological target: FAK (Homo sapiens); conditions: 100 nM; 1 h; relative to vehicle control; n = 8 measurements
Sequence (Q05397 whole entry): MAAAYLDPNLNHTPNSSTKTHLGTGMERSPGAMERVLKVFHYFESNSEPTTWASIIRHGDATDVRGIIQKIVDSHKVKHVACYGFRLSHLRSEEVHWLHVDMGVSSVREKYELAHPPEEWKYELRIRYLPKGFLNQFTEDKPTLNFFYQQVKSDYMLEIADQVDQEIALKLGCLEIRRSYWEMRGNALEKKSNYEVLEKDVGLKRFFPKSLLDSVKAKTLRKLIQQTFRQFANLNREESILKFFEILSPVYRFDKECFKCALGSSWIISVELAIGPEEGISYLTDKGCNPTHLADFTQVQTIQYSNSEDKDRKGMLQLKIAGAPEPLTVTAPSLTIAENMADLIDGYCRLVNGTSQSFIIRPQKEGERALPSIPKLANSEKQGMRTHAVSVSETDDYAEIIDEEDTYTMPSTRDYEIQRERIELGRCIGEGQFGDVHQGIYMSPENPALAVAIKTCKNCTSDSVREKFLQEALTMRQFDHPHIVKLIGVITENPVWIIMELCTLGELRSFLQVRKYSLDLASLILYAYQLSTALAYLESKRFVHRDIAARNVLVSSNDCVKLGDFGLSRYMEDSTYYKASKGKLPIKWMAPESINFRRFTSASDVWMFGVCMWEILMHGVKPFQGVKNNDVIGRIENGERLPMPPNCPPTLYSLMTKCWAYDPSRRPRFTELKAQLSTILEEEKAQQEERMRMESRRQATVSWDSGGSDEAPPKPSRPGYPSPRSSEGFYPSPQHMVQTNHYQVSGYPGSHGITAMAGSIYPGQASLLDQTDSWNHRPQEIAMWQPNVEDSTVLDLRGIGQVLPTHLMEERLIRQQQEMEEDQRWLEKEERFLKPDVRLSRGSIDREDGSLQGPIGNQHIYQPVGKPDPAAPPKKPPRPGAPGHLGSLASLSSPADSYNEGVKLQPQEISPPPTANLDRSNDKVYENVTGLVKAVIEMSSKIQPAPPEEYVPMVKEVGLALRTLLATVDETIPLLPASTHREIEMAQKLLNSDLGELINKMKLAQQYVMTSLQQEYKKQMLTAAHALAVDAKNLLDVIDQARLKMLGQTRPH
MEASURED_ATTRIBUTE: FAK-Tyr-397/FAK fold change, ± SEM (fold change)
Please respond with the number in fold change and leave the unit unwritten.

Exercise: Requested read-out: FAK-Tyr-397/FAK fold change, ± SEM. Entry: Cl.O=C(NCCc1ccncc1)Nc1cc(C(F)(F)F)ccc1N1CCOCC1 [Compound 7HCl]
Key: 0.91

Exercise: Requested read-out: FAK-Tyr-397/FAK fold change, ± SEM. Entry: CN(C)C(CNC(=O)Nc1cc(Cl)ccc1N1CCOCC1)c1ccncc1 (stereo not shown) [Compound 10e]
Key: 0.82

Exercise: Requested read-out: FAK-Tyr-397/FAK fold change, ± SEM. Entry: CN(C)C(CNC(=O)Nc1cc(F)ccc1N1CCOCC1)c1ccncc1.Cl (stereo not shown) [Compound 10bHCl]
Key: 1.39

Exercise: Requested read-out: FAK-Tyr-397/FAK fold change, ± SEM. Entry: CN(C)C(CNC(=O)Nc1cc(C(F)F)ccc1N1CCOCC1)c1ccncc1 (stereo not shown) [Compound 10f]
Key: 1.2

Exercise: Requested read-out: FAK-Tyr-397/FAK fold change, ± SEM. Entry: CN(C)C(CNC(=O)Nc1cc(OC(F)(F)F)ccc1N1CCOCC1)c1ccncc1 (stereo not shown) [Compound 10g]
Key: 1.12

Exercise: Requested read-out: FAK-Tyr-397/FAK fold change, ± SEM. Entry: Cc1ccc(N2CCOCC2)c(NC(=O)NCC(c2ccncc2)N(C)C)c1 (stereo not shown) [Compound 10c]
Key: 0.89

Exercise: Requested read-out: FAK-Tyr-397/FAK fold change, ± SEM. Entry: `O=C(NCCc1cnccn1)Nc1cc(C(F)(F)F)ccc1N1CCOCC1`
Key: 0.93
